- target system: F17bG lectin domain (Escherichia coli, UniProt Q47200)
- Sequence (Q47200 23-199): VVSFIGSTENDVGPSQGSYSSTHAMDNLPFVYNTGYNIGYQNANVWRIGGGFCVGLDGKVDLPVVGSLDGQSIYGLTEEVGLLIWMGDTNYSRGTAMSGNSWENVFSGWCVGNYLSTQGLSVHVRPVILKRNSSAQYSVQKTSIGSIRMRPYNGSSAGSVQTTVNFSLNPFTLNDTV
- applied conditions: CFG glycan array version 2; F17G at 200 µg/mL; SEM in parentheses
Below, each entry is listed alongside its reported Relative Fluorescence Units (RFU), averaged over six replicates, F17bG.
assay endpoint: Relative Fluorescence Units (RFU), averaged over six replicates, F17bG

# cpd smiles, target system, measured
data = [
    ("NCCCO[C@@H]1O[C@H](CO)[C@@H](O)[C@H](O)[C@H]1N", "F17bG lectin domain (Escherichia coli, UniProt Q47200)", "7,281 (1,506) RFU"),
    ("CC(=O)N[C@H]1[C@H](O[C@H]2[C@@H](O)[C@@H](CO)O[C@@H](OCCCN)[C@@H]2O)O[C@H](CO)[C@@H](O)[C@@H]1O", "F17bG lectin domain (Escherichia coli, UniProt Q47200)", "16,310 (1,907) RFU"),
    ("CC(=O)N[C@H]1[C@H](OCCCN)O[C@H](CO)[C@@H](O)[C@@H]1O", "F17bG lectin domain (Escherichia coli, UniProt Q47200)", "12,289 (1,168) RFU"),
    ("CC(=O)N[C@H]1[C@H](OCCCN)O[C@H](CO)[C@@H](O[C@@H]2O[C@H](CO)[C@@H](O[C@@H]3O[C@H](CO)[C@@H](O)[C@H](O)[C@H]3NC(C)=O)[C@H](O)[C@H]2NC(C)=O)[C@@H]1O", "F17bG lectin domain (Escherichia coli, UniProt Q47200)", "2,860 (706) RFU"),
    ("CC(=O)N[C@H]1[C@H](OCCCN)O[C@H](CO)[C@@H](O[C@@H]2O[C@H](CO[C@@H]3O[C@H](CO)[C@@H](O)[C@H](O)[C@H]3NC(C)=O)[C@H](O)[C@H](O[C@@H]3O[C@H](CO)[C@@H](O)[C@H](O)[C@H]3NC(C)=O)[C@H]2O)[C@@H]1O", "F17bG lectin domain (Escherichia coli, UniProt Q47200)", "21,630 (2,490) RFU"),
    ("CC(=O)N[C@H]1[C@H](O[C@H]2[C@@H](O)[C@@H](CO)O[C@H](OCCCN)[C@@H]2NC(C)=O)O[C@H](CO)[C@@H](O)[C@@H]1O", "F17bG lectin domain (Escherichia coli, UniProt Q47200)", "15,182 (2,925) RFU"),
    ("CC(=O)N[C@H]1[C@H](OCCN)O[C@H](CO)[C@@H](O)[C@@H]1O", "F17bG lectin domain (Escherichia coli, UniProt Q47200)", "14,972 (2,705) RFU"),
    ("CC(=O)N[C@H]1[C@H](OC[C@H]2O[C@H](OCCCN)[C@H](NC(C)=O)[C@@H](O[C@@H]3O[C@H](CO)[C@H](O)[C@H](O)[C@H]3O)[C@H]2O)O[C@H](CO)[C@@H](O)[C@@H]1O", "F17bG lectin domain (Escherichia coli, UniProt Q47200)", "6,215 (1,046) RFU"),
]

###

- target system: F17dG lectin domain (Escherichia coli, UniProt Q47199)
- Sequence (Q47199 23-199): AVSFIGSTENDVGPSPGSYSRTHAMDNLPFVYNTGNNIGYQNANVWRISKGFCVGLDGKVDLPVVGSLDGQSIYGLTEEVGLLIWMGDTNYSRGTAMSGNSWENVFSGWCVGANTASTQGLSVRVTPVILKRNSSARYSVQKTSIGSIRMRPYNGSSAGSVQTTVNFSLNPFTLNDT
- applied conditions: CFG glycan array version 2; F17G at 200 µg/mL; SEM in parentheses
assay endpoint: Relative Fluorescence Units (RFU), averaged over six replicates, F17dG

# cpd smiles, measured
data = [
    ("CC(=O)N[C@H]1[C@H](OCCCN)O[C@H](CO)[C@@H](O[C@@H]2O[C@H](CO)[C@@H](O[C@@H]3O[C@H](CO)[C@@H](O)[C@H](O)[C@H]3NC(C)=O)[C@H](O)[C@H]2NC(C)=O)[C@@H]1O", "1,690 (251) RFU"),
    ("CC(=O)N[C@H]1[C@H](OC[C@H]2O[C@H](OCCCN)[C@H](NC(C)=O)[C@@H](O[C@@H]3O[C@H](CO)[C@H](O)[C@H](O)[C@H]3O)[C@H]2O)O[C@H](CO)[C@@H](O)[C@@H]1O", "3,850 (364) RFU"),
    ("CC(=O)N[C@H]1[C@H](O[C@H]2[C@@H](O)[C@@H](CO)O[C@H](OCCCN)[C@@H]2NC(C)=O)O[C@H](CO)[C@@H](O)[C@@H]1O", "6,635 (2,735) RFU"),
    ("CC(=O)N[C@H]1[C@H](OCCCN)O[C@H](CO)[C@@H](O[C@@H]2O[C@H](CO[C@@H]3O[C@H](CO)[C@@H](O)[C@H](O)[C@H]3NC(C)=O)[C@H](O)[C@H](O[C@@H]3O[C@H](CO)[C@@H](O)[C@H](O)[C@H]3NC(C)=O)[C@H]2O)[C@@H]1O", "17,195 (3,442) RFU"),
]
